Cited source for all entries: the supplement of paper PMC10065799

Biological target: Grb2 SH2 (UniProt P62993)
Test: SH2 binding enrichment of the phosphorylated peptide, bacterial display (enrichment ratio); higher = better substrate or ligand; peptides without Tyr show the background
readout-type: SH2 binding enrichment

Example results:
>>> df
                     sequence_code            readout_type  readout_number
0    AIDVGYRLIDC [AKR1B1_Y40_H42L]  SH2 binding enrichment           0.993
1  VRTGIYHGGKP [PIK3CA_Y361_E365K]  SH2 binding enrichment           0.898
2   GPIIRYDLGGA [CYP11B1_Y81_F79I]  SH2 binding enrichment           0.645
3         VLPIDYFFPPQ [AR_Y552_YF]  SH2 binding enrichment           0.986

A = EHVMPYAANKN [GRIN2A_Y1431]
B = SIFKDYFRFNF [PLA2G2D_Y85_YF]
Hi! Which is lower in terms of SH2 binding enrichment, the first one A or the second one B ? Reply briefly: the label of your chosen item. A

* * *

Molecular target: Fes (UniProt P07332)
Sequence (P07332 whole entry, looked up): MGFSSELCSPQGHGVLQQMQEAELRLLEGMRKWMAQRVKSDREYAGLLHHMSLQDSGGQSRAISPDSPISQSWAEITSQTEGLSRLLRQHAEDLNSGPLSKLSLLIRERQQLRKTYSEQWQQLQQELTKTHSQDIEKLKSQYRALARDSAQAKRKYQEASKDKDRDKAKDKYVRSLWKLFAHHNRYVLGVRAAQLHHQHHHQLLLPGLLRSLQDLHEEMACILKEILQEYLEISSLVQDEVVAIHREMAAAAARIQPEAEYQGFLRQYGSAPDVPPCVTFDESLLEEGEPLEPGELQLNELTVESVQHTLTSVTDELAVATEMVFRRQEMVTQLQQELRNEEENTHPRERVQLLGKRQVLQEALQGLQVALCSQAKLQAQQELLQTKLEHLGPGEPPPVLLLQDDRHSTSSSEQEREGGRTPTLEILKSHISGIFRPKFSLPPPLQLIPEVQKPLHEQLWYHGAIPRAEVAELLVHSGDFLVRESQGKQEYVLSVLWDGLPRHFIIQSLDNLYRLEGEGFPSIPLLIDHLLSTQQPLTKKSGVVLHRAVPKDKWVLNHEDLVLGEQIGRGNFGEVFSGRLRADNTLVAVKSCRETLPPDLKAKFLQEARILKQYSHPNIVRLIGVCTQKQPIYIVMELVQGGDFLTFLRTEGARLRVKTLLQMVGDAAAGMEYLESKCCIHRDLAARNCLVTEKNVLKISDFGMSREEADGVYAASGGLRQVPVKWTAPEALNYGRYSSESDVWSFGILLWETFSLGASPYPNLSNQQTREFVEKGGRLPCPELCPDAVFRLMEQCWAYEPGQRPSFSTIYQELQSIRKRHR
Experiment: phosphorylation enrichment, bacterial display (enrichment ratio); higher = better substrate or ligand; peptides without Tyr show the background
readout-type: phosphorylation enrichment
// keep it numeric: no unit symbol after the value

In [3]: df
Out[3]:
                    sequence_code             tested_on                readout_type  readout_number
0  IGKDLYANNVL [ACTA2_Y296_R292G]  Fes (UniProt P07332)  phosphorylation enrichment            1.15
1       KSIEEYLKLVG [RASAL2_Y381]  Fes (UniProt P07332)  phosphorylation enrichment           0.962
2  TVQIMYGCDVG [HLA-A_Y123_I119V]  Fes (UniProt P07332)  phosphorylation enrichment            1.22
3        AVRVFYRKCPR [EPHB2_Y194]  Fes (UniProt P07332)  phosphorylation enrichment           0.655
4       DNLNNYVFQGQ [GRIN2A_Y978]  Fes (UniProt P07332)  phosphorylation enrichment            1.06
5       CEHRGYLFLAI [TEK_Y897_YF]  Fes (UniProt P07332)  phosphorylation enrichment           0.906

Would you kindly look at the next entry?
Give phosphorylation enrichment for IQVNAYFSPIH [ADSL_Y432_D430N] 1.29

* * *

Target: Fes (UniProt P07332)
Experiment: phosphorylation enrichment, bacterial display (enrichment ratio); higher = better substrate or ligand; peptides without Tyr show the background
readout-type: phosphorylation enrichment
Keep it simple and answer with nothing but the number.

In [3]: df
Out[3]:
                    sequence_code  readout_number
0        SVKVYYKKCWS [EPHA7_Y202]            1.25
1  FSVDSYDSSVR [KCNQ1_Y461_G460S]            1.39

Quote Fes (UniProt P07332) phosphorylation enrichment for entry FDCGMYSHLQG [LGR4_Y848_YF] . 1.31

Identify measured phosphorylation enrichment obtained with Fes (UniProt P07332) for MMVGAYSSLEG [ECPAS_Y470_T472S] . 0.754

Write phosphorylation enrichment of AAVDEYLEHRR [FAM221A_Y17_Y20H] ; system used: Fes (UniProt P07332) 1.03

# return phosphorylation enrichment of FAREGYSALPQ [SARS2_Y52_YF] (system: Fes (UniProt P07332)) 0.666

State measured phosphorylation enrichment of the sequence RGRSTCFWPRP [GAGE12J_Y9_Y9C_YF] with Fes (UniProt P07332). 0.772

Provide measured phosphorylation enrichment on Fes (UniProt P07332) for RQEEEYKRFSE [SFSWAP_Y133_L136F] please. 1.95

Give measured phosphorylation enrichment for RSRSSYTHGLN [MYCT1_Y116] (Fes (UniProt P07332)). 1.35

* * *

Target: Hck (UniProt P08631)
Sequence (P08631 whole entry, looked up): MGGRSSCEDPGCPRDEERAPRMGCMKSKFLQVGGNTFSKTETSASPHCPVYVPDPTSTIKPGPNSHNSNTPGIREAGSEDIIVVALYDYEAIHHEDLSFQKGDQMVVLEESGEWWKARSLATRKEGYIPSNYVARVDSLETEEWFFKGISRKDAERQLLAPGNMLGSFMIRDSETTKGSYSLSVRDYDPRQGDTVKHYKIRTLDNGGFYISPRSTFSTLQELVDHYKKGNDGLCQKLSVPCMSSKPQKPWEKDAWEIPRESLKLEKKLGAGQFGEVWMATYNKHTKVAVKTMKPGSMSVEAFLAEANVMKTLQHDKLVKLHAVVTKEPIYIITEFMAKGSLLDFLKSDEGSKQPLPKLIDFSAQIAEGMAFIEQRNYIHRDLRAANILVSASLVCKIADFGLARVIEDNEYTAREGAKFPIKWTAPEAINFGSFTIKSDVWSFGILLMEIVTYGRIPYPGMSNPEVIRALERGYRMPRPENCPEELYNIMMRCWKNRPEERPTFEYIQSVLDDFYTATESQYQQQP
Test: phosphorylation enrichment, bacterial display (enrichment ratio); higher = better substrate or ligand; peptides without Tyr show the background
readout-type: phosphorylation enrichment
Reply: number alone, nothing else.

Some solved cases for reference:
                    sequence_code  readout_number
0  SEQNNYSRVAN [CWC22_Y797_R794Q]           0.458
1  YLAAIYPTVGQ [NF1_Y2508_T2507I]            0.57
2          KYLENYYDLKK [MMP3_Y41]            2.16

In the following, a different sequence is considered.
Provide only the value of recorded phosphorylation enrichment for IIGNGYFFRVF [MYBPC3_Y1135_YF] 0.33

* * *

A collection of sequences and their measured phosphorylation enrichment
System: c-Abl (mouse)
Test: phosphorylation enrichment, bacterial display (enrichment ratio); higher = better substrate or ligand; peptides without Tyr show the background
Just the number, please.

Examples with their reported phosphorylation enrichment follow.
>>> df
                       sequence_code      tested_on                readout_type  readout_number
0  MHDKEYFSVHN [MET_Y1234_Y1230H_YF]  c-Abl (mouse)  phosphorylation enrichment           0.737
1             RLRKYYLGKYL [KLB_Y906]  c-Abl (mouse)  phosphorylation enrichment           0.454
2   YNNYGYGSDGF [HNRNPH3_Y161_N163S]  c-Abl (mouse)  phosphorylation enrichment            0.55
3             ATRKAYGQALA [TKT_Y321]  c-Abl (mouse)  phosphorylation enrichment           0.415
4         VDTPMYATMQR [TPO_Y55_A53P]  c-Abl (mouse)  phosphorylation enrichment            2.11
5         RPSGRYPVARR [SHANK3_Y1569]  c-Abl (mouse)  phosphorylation enrichment           0.677

Attention now turns to another entry.
Identify measured phosphorylation enrichment associated with PNAFIYVVQLP [L1CAM_Y420_A415P_YF] 0.747

* * *

Target: Fyn (UniProt P06241)
Sequence (P06241 whole entry, looked up): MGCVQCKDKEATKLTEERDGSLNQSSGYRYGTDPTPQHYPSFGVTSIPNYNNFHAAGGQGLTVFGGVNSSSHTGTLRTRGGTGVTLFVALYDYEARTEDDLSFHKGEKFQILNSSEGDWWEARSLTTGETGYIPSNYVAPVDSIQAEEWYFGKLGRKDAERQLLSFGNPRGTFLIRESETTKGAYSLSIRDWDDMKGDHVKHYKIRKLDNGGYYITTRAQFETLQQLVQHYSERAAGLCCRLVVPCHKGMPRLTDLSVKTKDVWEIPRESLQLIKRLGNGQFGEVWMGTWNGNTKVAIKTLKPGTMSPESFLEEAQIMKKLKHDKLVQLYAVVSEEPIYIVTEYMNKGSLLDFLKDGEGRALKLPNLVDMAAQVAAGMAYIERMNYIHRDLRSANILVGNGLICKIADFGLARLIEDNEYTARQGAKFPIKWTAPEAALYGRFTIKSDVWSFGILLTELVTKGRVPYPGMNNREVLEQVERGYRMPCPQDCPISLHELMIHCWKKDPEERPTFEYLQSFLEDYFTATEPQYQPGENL
Assay: phosphorylation enrichment, bacterial display (enrichment ratio); higher = better substrate or ligand; peptides without Tyr show the background
readout-type: phosphorylation enrichment
Please give the numeric answer without any surrounding text.

Would you please look over these solved cases?
In [3]: df
Out[3]:
                     sequence_code             tested_on  readout_number
0     MDYRSYPHEYG [RBM10_Y44_R46H]  Fyn (UniProt P06241)           0.419
1   IGKDLYANNVL [ACTA2_Y296_R292G]  Fyn (UniProt P06241)           0.526
2   LDPDSYNVFEN [FOXC1_Y159_M161V]  Fyn (UniProt P06241)           0.643
3  VCDSNYSASRW [LRP5_Y1552_D1551N]  Fyn (UniProt P06241)           0.483
4         ERFAFYRDSPR [FOXE3_Y108]  Fyn (UniProt P06241)            0.49

Determine from records and report phosphorylation enrichment for GPTLSYGRDGR [MATR3_Y158] 0.33

Consider the sequence HFMKLYEEKTG [PARP1_Y618] . State its measured phosphorylation enrichment. 0.282

* * *

Biological target: Fes (UniProt P07332)
Assay: phosphorylation enrichment, bacterial display (enrichment ratio); higher = better substrate or ligand; peptides without Tyr show the background
readout-type: phosphorylation enrichment
The answer should be written as a number, with no unit following it.

Example sequences with recorded phosphorylation enrichment:
>>> df
                         sequence_code  readout_number
0  QFNPEYVQQAS [LRRC7_Y1058_H1054Y_YF]            1.46
1        VNYGAYINNFK [GLB1_Y488_D491N]           0.723
2        VTVLDYEKIGK [SYT1_Y365_D366E]           0.868
3            DHFNQYEQQKM [CHD7_Y75_YF]           0.744
4             HFMKLYEEKTG [PARP1_Y618]           0.663

Annotate the sequence NPQKSYFIHLY [WAS_Y83_R86H] with its measured phosphorylation enrichment. 1.23

Report phosphorylation enrichment for CTTIHQNFMCN [TP53_Y234_Y234Q_YF] 0.855

Report phosphorylation enrichment, nothing else, for this sequence: QMQAAYQKVVA [HBD_Y131] 0.578

Output measured phosphorylation enrichment for this item: ETDTRYFDEEF [AKT1_Y437] 1.29

Hello, please tell me recorded phosphorylation enrichment for this one: RFMVGYEMLAQ [GALT_Y339_K334R] 1.41

Read the entry `ANNEFYFQVCA` and write its reported phosphorylation enrichment. 1.37

Indicate the recorded phosphorylation enrichment value for this sequence: SFPSTYRYERG [INPPL1_Y661_P659S] 0.813

For the sequence AAGGRYFGLVG [HARS1_Y363_D364Y_YF] , report phosphorylation enrichment. 0.764

Indicate its recorded phosphorylation enrichment; the sequence in question is MDFRSYPHEFG [RBM10_Y44_R46H_YF] 0.69
